Assay remarks: Dog single oral dose MTD study
Type: in vivo
Experimental setup: male, dog, plasma; 500 mg/kg PO (Dose 2; Day 4), 0.5 h, M, N = 2; read-out: Average Compound 1 Concentration in dog plasma
Counter-ions that a name gives are not always drawn.
Endpoint: concentration at 0.5 h (µg/mL)
Answers are plain numbers, in µg/mL.

Task: For the molecule CC1(C)SC(Nc2ccccc2O)=N[C@@H]1C(=O)O [Compound 1, mono-hydrochloride] , what concentration at 0.5 h is on record?
Result: 111

---

Assay remarks: Rat 28-day GLP repeat dose PO study (toxicokinetics)
Assay type: in vivo
Experimental setup: female, rat, in vivo, po, 1000 mg/kg, Day 1, F, 1000 mg/kg PO
Counter-ions that a name gives are not always drawn.
Endpoint: AUC(0-inf) (µg·h/mL)
Numbers only, in µg·h/mL.

Task: For the compound CC1(C)SC(Nc2ccccc2O)=N[C@@H]1C(=O)O [Compound 1, mono-hydrochloride] , what AUC(0-inf) is on record?
Result: 794

---

Assay remarks: in vivo
Experimental setup: male, Sprague-Dawley (CD IGS, Crl:CD(SD)), rat, po, 100 mg/kg
Structures can show the parent of a compound that is named as a salt.
Endpoint: half-life (h)
Answers are plain numbers, in h.

Task: For the molecule CC1(C)SC(Nc2ccccc2O)=N[C@@H]1C(=O)O [Compound 1, mono-hydrochloride] , what half-life is on record?
Result: 7

---

Assay remarks: Dog single oral dose MTD study
Format: in vivo
Experimental setup: female, dog, plasma; 350 mg/kg PO (Dose 3; Day 9), 0.5 h, F, N = 2; read-out: Average Compound 1 Concentration in dog plasma
Counter-ions that a name gives are not always drawn.
Endpoint: concentration at 0.5 h (µg/mL)
Answers are plain numbers, in µg/mL.

Task: For the molecule CC1(C)SC(Nc2ccccc2O)=N[C@@H]1C(=O)O [Compound 1, mono-hydrochloride] , what concentration at 0.5 h is on record?
Result: 67

---

Target of assay: CYP3A4 (Homo sapiens)
Construct: tissue BD Gentest; host or cells: human liver microsomes
Sequence (P08684 whole entry): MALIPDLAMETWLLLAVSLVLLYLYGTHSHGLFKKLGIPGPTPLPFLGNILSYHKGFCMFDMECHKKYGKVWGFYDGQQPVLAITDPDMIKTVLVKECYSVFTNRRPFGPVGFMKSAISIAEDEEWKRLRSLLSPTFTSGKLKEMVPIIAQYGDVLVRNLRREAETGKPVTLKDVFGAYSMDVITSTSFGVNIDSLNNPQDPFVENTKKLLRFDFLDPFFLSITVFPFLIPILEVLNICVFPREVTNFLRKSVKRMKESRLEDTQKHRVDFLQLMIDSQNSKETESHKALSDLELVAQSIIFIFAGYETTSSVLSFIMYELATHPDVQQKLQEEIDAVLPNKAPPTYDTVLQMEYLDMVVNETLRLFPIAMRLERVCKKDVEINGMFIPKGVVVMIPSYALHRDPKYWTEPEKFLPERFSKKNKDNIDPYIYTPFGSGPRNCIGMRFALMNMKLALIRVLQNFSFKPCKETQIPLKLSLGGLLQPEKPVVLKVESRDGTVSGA
Assay remarks: CYP inhibition in human liver microsomes
Format: in vitro ADME
Experimental setup: CYP3A4; read-out: IC50
Counter-ions that a name gives are not always drawn.
Endpoint: IC50

Task: For the molecule CC1(C)SC(Nc2ccccc2O)=N[C@@H]1C(=O)O [Compound 1, mono-hydrochloride] , what IC50 is on record?
Result: > 100 µM

---

Assay remarks: Rat 28-day GLP repeat dose PO study (toxicokinetics)
Type: in vivo
Experimental setup: female, rat, in vivo, po, 500 mg/kg, Day 28, F, 500 mg/kg PO; read-out: V/F (Vss/F)
Where a name gives a salt, the structure may show the parent alone.
Endpoint: Vd/F
Give your result as the value with the unit written after it.

Task: For the compound CC1(C)SC(Nc2ccccc2O)=N[C@@H]1C(=O)O [Compound 1, mono-hydrochloride] , what Vd/F is on record?
Result: 11.2 L/kg

---

Assay remarks: Dog 28-day repeat dose PO study
Type: in vivo
Experimental setup: female, beagle, dog, in vivo, po, 400 mg/kg, Day 1, 400 mg/kg PO, F; read-out: Cmax
Where a name gives a salt, the structure may show the parent alone.
Endpoint: Cmax (µg/mL)
Answers are plain numbers, in µg/mL.

Task: For the compound CC1(C)SC(Nc2ccccc2O)=N[C@@H]1C(=O)O [Compound 1, mono-hydrochloride] , what Cmax is on record?
Result: 129

---

Target of assay: CYP2C9 (Homo sapiens)
Construct: tissue BD Gentest; host or cells: human liver microsomes
Sequence (P11712 whole entry): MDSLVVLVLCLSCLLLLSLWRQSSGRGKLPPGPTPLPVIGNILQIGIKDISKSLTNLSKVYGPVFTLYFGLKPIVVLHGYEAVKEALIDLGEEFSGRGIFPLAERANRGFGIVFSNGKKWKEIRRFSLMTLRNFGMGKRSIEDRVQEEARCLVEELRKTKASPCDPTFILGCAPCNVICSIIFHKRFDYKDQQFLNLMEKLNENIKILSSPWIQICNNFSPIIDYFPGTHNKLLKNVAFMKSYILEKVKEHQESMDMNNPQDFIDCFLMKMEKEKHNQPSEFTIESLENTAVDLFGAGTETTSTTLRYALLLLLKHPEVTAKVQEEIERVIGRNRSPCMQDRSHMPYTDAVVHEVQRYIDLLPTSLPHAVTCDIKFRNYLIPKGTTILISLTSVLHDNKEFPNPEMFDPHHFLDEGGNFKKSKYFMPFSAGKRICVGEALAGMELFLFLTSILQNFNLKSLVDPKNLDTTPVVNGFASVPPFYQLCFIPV
Assay remarks: CYP inhibition in human liver microsomes
Type: in vitro ADME
Experimental setup: CYP2C9; read-out: IC50
Where a name gives a salt, the structure may show the parent alone.
Endpoint: IC50

Task: For the compound CC1(C)SC(Nc2ccccc2O)=N[C@@H]1C(=O)O [Compound 1, mono-hydrochloride] , what IC50 is on record?
Result: > 100 µM

---

Assay remarks: Rat 28-day GLP repeat dose PO study (toxicokinetics)
Format: in vivo
Experimental setup: female, rat, in vivo, po, 1000 mg/kg, Day 28, F, 1000 mg/kg PO; read-out: V/F (Vss/F)
Procedure: The vehicle was 0.5% HPMC. There were 15 rats/sex in the control and high dose groups (5/sex for a 14-day recovery period) while the low and mid doses consisted of 10 rats/sex. Satellite groups of rats/sex/group for toxicokinetics were included. Rats in Group 1 (Vehicle Control) were bled once at approximately 1 hour post-dose on those days.
Structures can show the parent of a compound that is named as a salt.
Endpoint: Vd/F (L/kg)
Numbers only, in L/kg.

Task: For the compound CC1(C)SC(Nc2ccccc2O)=N[C@@H]1C(=O)O [Compound 1, mono-hydrochloride] , what Vd/F is on record?
Result: 6.26

---

Assay remarks: Rat 28-day GLP repeat dose PO study (toxicokinetics)
Type: in vivo
Experimental setup: female, rat, in vivo, po, 1000 mg/kg, Day 14, F, 1000 mg/kg PO; read-out: t1/2 (converted)
Counter-ions that a name gives are not always drawn.
Endpoint: half-life (h)
Numbers only, in h.

Task: For the compound CC1(C)SC(Nc2ccccc2O)=N[C@@H]1C(=O)O [Compound 1, mono-hydrochloride] , what half-life is on record?
Result: 4.19

---

Assay remarks: Rat 28-day GLP repeat dose PO study (toxicokinetics)
Type: in vivo
Experimental setup: male, rat, in vivo, po, 500 mg/kg, Day 14, M, 500 mg/kg PO
Counter-ions that a name gives are not always drawn.
Endpoint: AUC(0-inf) (µg·h/mL)
Numbers only, in µg·h/mL.

Task: For the molecule CC1(C)SC(Nc2ccccc2O)=N[C@@H]1C(=O)O [Compound 1, mono-hydrochloride] , what AUC(0-inf) is on record?
Result: 258

---

Assay remarks: Dog 7-day repeat dose PO study
Format: in vivo
Experimental setup: female, plasma, 200 mg/kg, Day 1, 200 mg/kg PO, F, N = 1
Procedure: The objective was to develop a preliminary toxicity profile of Compound 1 following daily oral (gavage) administration for 7 days to male and female dogs to support dose selection for a 28-day toxicity study in dogs. Doses were selected based on the results of the MTD phase. Dose levels were 0 (Vehicle Control), 200, 350 and 400 mg/kg (1 dog/sex/group). The vehicle was 0.5% aqueous HPMC. The animals used in this study were returned to the holding colony
Where a name gives a salt, the structure may show the parent alone.
Endpoint: AUC(0-t) (µg·h/mL)
One number for each entry, in µg·h/mL.

Task: For the molecule CC1(C)SC(Nc2ccccc2O)=N[C@@H]1C(=O)O [Compound 1, mono-hydrochloride] , what AUC(0-t) is on record?
Result: 582

---

Assay remarks: Rat 7-day repeat dose PO study (toxicokinetics, MTD)
Format: in vivo
Experimental setup: both sexes, Sprague Dawley (Hsd:SD), rat, in vivo, po, 2000 mg/kg
Counter-ions that a name gives are not always drawn.
Endpoint: Cmax (µg/mL)
Answers are plain numbers, in µg/mL.

Task: For the compound CC1(C)SC(Nc2ccccc2O)=N[C@@H]1C(=O)O [Compound 1, mono-hydrochloride] , what Cmax is on record?
Result: 121

---

Assay remarks: in vivo
Experimental setup: female, Sprague Dawley (CD IGS, Crl:CD(SD)), rat, po, 100 mg/kg, Compound 1 Concentration in rat plasma, Female, 100 mg/kg single PO, 2 h post-dose, individual animals
Counter-ions that a name gives are not always drawn.
Endpoint: concentration at 2 h (µg/mL)
Numbers only, in µg/mL.

Task: For the compound CC1(C)SC(Nc2ccccc2O)=N[C@@H]1C(=O)O [Compound 1, mono-hydrochloride] , what concentration at 2 h is on record?
Result: 58.2

---

Assay remarks: Rat brain distribution and pharmacokinetic study
Assay type: in vivo
Experimental setup: rat, in vivo; 1 h after IV administration; read-out: brain-to-plasma concentration ratio
Counter-ions that a name gives are not always drawn.
Endpoint: Kp at 1 h
Numbers only.

Task: For the compound CC1(C)SC(Nc2ccccc2O)=N[C@@H]1C(=O)O [Compound 1, mono-hydrochloride] , what Kp at 1 h is on record?
Result: 0.02

---

Assay remarks: Dog single oral dose MTD study
Format: in vivo
Experimental setup: male, dog, plasma; 250 mg/kg PO (Dose 1; Day 1), 0.5 h, M, N = 2; read-out: Average Compound 1 Concentration in dog plasma
Where a name gives a salt, the structure may show the parent alone.
Endpoint: concentration at 0.5 h (µg/mL)
Answers are plain numbers, in µg/mL.

Task: For the molecule CC1(C)SC(Nc2ccccc2O)=N[C@@H]1C(=O)O [Compound 1, mono-hydrochloride] , what concentration at 0.5 h is on record?
Result: 71

---

Assay remarks: Rat 28-day GLP repeat dose PO study (toxicokinetics)
Assay type: in vivo
Experimental setup: female, rat, in vivo, po, 1000 mg/kg, Day 1, F, 1000 mg/kg PO; read-out: t1/2 (converted)
Procedure: The vehicle was 0.5% HPMC. There were 15 rats/sex in the control and high dose groups (5/sex for a 14-day recovery period) while the low and mid doses consisted of 10 rats/sex. Satellite groups of rats/sex/group for toxicokinetics were included. Rats in Group 1 (Vehicle Control) were bled once at approximately 1 hour post-dose on those days.
Where a name gives a salt, the structure may show the parent alone.
Endpoint: half-life (h)
One number for each entry, in h.

Task: For the compound CC1(C)SC(Nc2ccccc2O)=N[C@@H]1C(=O)O [Compound 1, mono-hydrochloride] , what half-life is on record?
Result: 3.39
